Biological target: HLA-DQ2 (Homo sapiens, UniProt P01909+P01920)
Sequence (P01920 33-261 limits assumed, other chains not shown): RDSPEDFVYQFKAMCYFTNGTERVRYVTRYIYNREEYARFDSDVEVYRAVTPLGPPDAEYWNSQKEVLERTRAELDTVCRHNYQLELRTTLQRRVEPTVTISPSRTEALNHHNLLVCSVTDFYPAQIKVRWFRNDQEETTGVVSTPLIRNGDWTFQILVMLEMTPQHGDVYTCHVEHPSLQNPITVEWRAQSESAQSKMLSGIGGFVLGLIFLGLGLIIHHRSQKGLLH
Experiment: Inhibition of IL-2 secretion by TCR transductants stimulated by α-gliadin peptides presented by HLA-DQ2 expressing K562 cells (ELISA)
Format: cell-based
Settings: inhibition of IL-2 secretion at 200 uM; tested as trans racemate unless otherwise noted; lines naming several Examples = stereoisomer mixture of those Examples
MEASUREMENT_TYPE: % Inh at 200 uM

INSERT INTO measurements (compound, result) VALUES
  ('O=C(O)c1ccc(SCC(=O)N2CCN(C(=O)[C@@H]3C[C@H]3c3ccccc3)CC2)cc1 [Example 104]', 'B (B=50-74%)'),
  ('O=C(CSC1CCCC1)N1CCN(C(=O)[C@H]2C[C@@H]2c2cccc(Cl)c2)CC1 [Example 32]', 'B (B=50-74%)'),
  ('Cc1ccc(C)c(SCC(=O)N2CCN(C(=O)[C@@H]3C[C@H]3c3ccccc3)CC2)c1 (relative stereo) [Example 55]', 'B (B=50-74%)'),
  ('O=C(COC1CCCC1)N1CCN(C(=O)[C@@H]2C[C@H]2c2ccccc2)CC1 [Example 64]', 'B (B=50-74%)');
